# TGT: T1, recombinant BACE1 (BACE1 extracellular domain, R&D Systems Cat#931-AS) (UniProt P56817 22-457)
# T1 construct: extracellular domain; also called BACE1 extracellular domain protein
# EXPERIMENTAL_DETAILS: SPR Biacore 8K, antibody captured, BACE1 analyte
PROPERTY_MEASURED: Kd (nM)
One number for each entry, in nM.

{"BINDER": "hu2H8v29.13 (antibody, V domains shown, captured via human Fc; also called hu2H8_LC5 + hu2H8_HC6.2) VH: QVQLVQSGAEVKKPGASVKVSCKASGYTFTNYWIHWVRQAPGQGLEWMGMIDPSDSYTKYNQKFKARATLTVDTSTSTVYMELSSLRSEDTAVYYCARSGVAFPYWGQGTLVTVSS VL: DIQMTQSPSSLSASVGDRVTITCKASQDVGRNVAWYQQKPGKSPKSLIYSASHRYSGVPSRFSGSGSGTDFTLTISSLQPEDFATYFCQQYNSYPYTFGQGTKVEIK", "PROPERTY_MEASURED": "Kd", "READOUT_VALUE": 9.16}
{"BINDER": "hu2H8v29.25 (antibody, V domains shown, captured via human Fc; also called hu2H8_LC5 + hu2H8_HC6.14) VH: QVQLVQSGAEVKKPGASVKVSCKASGYTFTNFWIHWVRQAPGQGLEWMGMIDPSDSYTKYNQKFKARATLTVDTSTSTVYMELSSLRSEDTAVYYCARSGAALPYWGQGTLVTVSS VL: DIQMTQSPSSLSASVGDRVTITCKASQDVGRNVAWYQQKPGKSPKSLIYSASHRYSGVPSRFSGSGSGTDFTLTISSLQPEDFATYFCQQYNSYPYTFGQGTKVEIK", "PROPERTY_MEASURED": "Kd", "READOUT_VALUE": 6.08}
{"BINDER": "hu2H8v29.26 (antibody, V domains shown, captured via human Fc; also called hu2H8_LC5 + hu2H8_HC6.15) VH: QVQLVQSGAEVKKPGASVKVSCKASGYTFTNFWIHWVRQAPGQGLEWMGMIDPSDSYTKYNQKFKARATLTVDTSTSTVYMELSSLRSEDTAVYYCARSGGALPYWGQGTLVTVSS VL: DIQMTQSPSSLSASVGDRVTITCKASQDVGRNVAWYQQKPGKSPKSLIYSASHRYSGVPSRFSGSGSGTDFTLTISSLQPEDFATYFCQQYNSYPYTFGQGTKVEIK", "PROPERTY_MEASURED": "Kd", "READOUT_VALUE": 8.52}
{"BINDER": "hu2H8v29 (antibody, V domains shown, humanized; also called hu2H8_HC6 + hu2H8_LC5) VH: QVQLVQSGAEVKKPGASVKVSCKASGYTFTNFWIHWVRQAPGQGLEWMGMIDPSDSYTKYNQKFKARATLTVDTSTSTVYMELSSLRSEDTAVYYCARSGVAFPYWGQGTLVTVSS VL: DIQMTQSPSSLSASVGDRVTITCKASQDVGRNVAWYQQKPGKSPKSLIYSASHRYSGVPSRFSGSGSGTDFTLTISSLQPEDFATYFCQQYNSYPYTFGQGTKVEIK", "PROPERTY_MEASURED": "Kd", "READOUT_VALUE": 9.21}

Lab book: Kd of hu2H8v29.17 (antibody, V domains shown, captured via human Fc; also called hu2H8_LC5 + hu2H8_HC6.6) VH: QVQLVQSGAEVKKPGASVKVSCKASGYTFTNFWIHWVRQAPGQGLEWMGMIDPSSSYTKYNQKFKARATLTVDTSTSTVYMELSSLRSEDTAVYYCARSGVAFPYWGQGTLVTVSS VL: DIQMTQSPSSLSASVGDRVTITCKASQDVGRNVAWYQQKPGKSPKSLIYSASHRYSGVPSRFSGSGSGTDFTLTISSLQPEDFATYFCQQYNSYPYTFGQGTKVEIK noted as 8.04
